# system: Falcipain-2 protease (FP-2) (Plasmodium falciparum, UniProt Q8I6U4)
# Construct: The falcipain-2 fragment was amplified by the polymerase chain reaction (PCR); His6 (N-terminal MRGS-His6 supplied by the pQE-30 vector; own knowledge of the vector, consistent with the Ni2+-NTA purification) (N); made in house; host or cells: E. coli M15
# Sequence (Q8I6U4 244-484): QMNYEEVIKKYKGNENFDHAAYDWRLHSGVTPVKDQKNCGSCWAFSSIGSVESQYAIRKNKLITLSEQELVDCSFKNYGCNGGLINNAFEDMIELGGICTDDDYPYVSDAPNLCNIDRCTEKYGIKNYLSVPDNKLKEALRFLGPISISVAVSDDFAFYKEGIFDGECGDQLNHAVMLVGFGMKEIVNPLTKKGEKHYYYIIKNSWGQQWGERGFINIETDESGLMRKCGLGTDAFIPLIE
# experimentSummary: Falcipain-2 protease inhibition assay (fluorescence reaction rate)
# Assay type: biochemical
# testConditions: pH 5.5, sigmoidal fit; read-out: IC50 against falcipain-2
pIC50: −log10 of the molar value.

{"molecule": "O=C(/C=C/c1ccc(O)c(O)c1)OCC1O[C@@H](Oc2c(-c3ccc(O)cc3)oc3cc(O)cc(O)c3c2=O)C(O)C(O)[C@@H]1O (stereo partly drawn) [kaempferol 3-O-β-(6″-caffeoylglucoside)]", "pIC50": 4.87}
{"molecule": "O=C(/C=C\\c1ccc(O)cc1)OCC1O[C@@H](Oc2c(-c3ccc(O)cc3)oc3cc(O)cc(O)c3c2=O)C(O)[C@H](OC(=O)/C=C\\c2ccc(O)cc2)[C@@H]1O (some centres unmarked) [Stenopalustroside A]", "pIC50": 5.84}

###

# Tested on: Plasmodium berghei (chloroquine sensitive strain)
# experimentSummary: In vivo anti-malarial activity, 4-day suppressive test in infected mice
# testConditions: 200 mg/kg daily for 4 days, intragastric, Swiss albino mice
# Experimental: Tests were performed in a 4-day suppressive standard test using the methods of David, Thurston and Peters (David, A. F., Philip, J. R., Simon, L. C., Reto B., and Solomon N. Antimalarial drug discovery: Efficacy models for compound screening. Nature Reviews. 2004; 3: 509-520). The plasmodium species, that is most widely employed in rodent malaria parasite-Plasmodium berghei (chloroquine sensitive strain), was used to infect Swiss albino mice for a fourday suppressive test. […]
# Day 4 % Suppression per entry
measurementLabel: Day 4 % Suppression (%)

{"compound": "O=C(/C=C\\c1ccc(O)cc1)OCC1O[C@@H](Oc2c(-c3ccc(O)cc3)oc3cc(O)cc(O)c3c2=O)C(O)[C@H](OC(=O)/C=C/c2ccc(O)cc2)[C@@H]1O (stereo partly shown) [Stenopalustroside D]", "system": "Plasmodium berghei (chloroquine sensitive strain)", "readoutUnit": "%", "reported": 43.4}
{"compound": "O=C(/C=C\\c1ccc(O)cc1)OCC1O[C@@H](Oc2c(-c3ccc(O)cc3)oc3cc(O)cc(O)c3c2=O)C(O)[C@H](OC(=O)/C=C\\c2ccc(O)cc2)[C@@H]1O (stereo partly shown) [Stenopalustroside A]", "system": "Plasmodium berghei (chloroquine sensitive strain)", "readoutUnit": "%", "reported": 34.7}
{"compound": "O=C(/C=C/c1ccc(O)c(O)c1)OCC1O[C@@H](Oc2c(-c3ccc(O)cc3)oc3cc(O)cc(O)c3c2=O)C(O)C(O)[C@@H]1O (stereo partly drawn) [kaempferol 3-O-β-(6″-caffeoylglucoside)]", "system": "Plasmodium berghei (chloroquine sensitive strain)", "readoutUnit": "%", "reported": 4.3}
{"compound": "O=C(/C=C/c1ccc(O)cc1)OC[C@H]1O[C@@H](Oc2c(-c3ccc(O)cc3)oc3cc(O)cc(O)c3c2=O)[C@H](O)[C@@H](O)[C@@H]1O [Tiliroside]", "system": "Plasmodium berghei (chloroquine sensitive strain)", "readoutUnit": "%", "reported": 21.7}

###

# system: Falcipain-2 protease (FP-2) (Plasmodium falciparum, UniProt Q8I6U4)
# Construct: The falcipain-2 fragment was amplified by the polymerase chain reaction (PCR); His6 (N-terminal MRGS-His6 supplied by the pQE-30 vector; own knowledge of the vector, consistent with the Ni2+-NTA purification) (N); made in house; host or cells: E. coli M15
# experimentSummary: Falcipain-2 protease inhibition assay (fluorescence reaction rate)
# Format: biochemical
# testConditions: 10 μM compound, pH 5.5

{"molecule": "O=C(/C=C\\c1ccc(O)cc1)OCC1O[C@@H](Oc2c(-c3ccc(O)cc3)oc3cc(O)cc(O)c3c2=O)C(O)[C@H](OC(=O)/C=C\\c2ccc(O)cc2)[C@@H]1O (some centres unmarked) [Stenopalustroside A]", "readoutUnit": "%", "inhibition at 10 µM": 53}
{"molecule": "O=C(/C=C\\c1ccc(O)cc1)OCC1O[C@@H](Oc2c(-c3ccc(O)cc3)oc3cc(O)cc(O)c3c2=O)C(O)[C@H](OC(=O)/C=C/c2ccc(O)cc2)[C@@H]1O (some centres unmarked) [Stenopalustroside D]", "readoutUnit": "%", "inhibition at 10 µM": 39.4}
{"molecule": "CC1O[C@@H](Oc2c(-c3ccc(O)cc3)oc3cc(O)cc(O)c3c2=O)C(OC(=O)/C=C/c2ccc(O)cc2)C(O)[C@H]1OC(=O)/C=C/c1ccc(O)cc1 (some centres unmarked)", "readoutUnit": "%", "inhibition at 10 µM": 49.4}
{"molecule": "O=C(/C=C/c1ccc(O)c(O)c1)OCC1O[C@@H](Oc2c(-c3ccc(O)cc3)oc3cc(O)cc(O)c3c2=O)C(O)C(O)[C@@H]1O (stereo partly drawn) [kaempferol 3-O-β-(6″-caffeoylglucoside)]", "readoutUnit": "%", "inhibition at 10 µM": 53}
{"molecule": "O=C(/C=C/c1ccc(O)cc1)OC[C@H]1O[C@@H](Oc2c(-c3ccc(O)cc3)oc3cc(O)cc(O)c3c2=O)[C@H](O)[C@@H](O)[C@@H]1O [Tiliroside]", "readoutUnit": "%", "inhibition at 10 µM": 64.4}

The values you see were collected from patent US8846627B2.
